- assayed_target: D(3) dopamine receptor (Homo sapiens)
- Sequence (P35462 whole entry): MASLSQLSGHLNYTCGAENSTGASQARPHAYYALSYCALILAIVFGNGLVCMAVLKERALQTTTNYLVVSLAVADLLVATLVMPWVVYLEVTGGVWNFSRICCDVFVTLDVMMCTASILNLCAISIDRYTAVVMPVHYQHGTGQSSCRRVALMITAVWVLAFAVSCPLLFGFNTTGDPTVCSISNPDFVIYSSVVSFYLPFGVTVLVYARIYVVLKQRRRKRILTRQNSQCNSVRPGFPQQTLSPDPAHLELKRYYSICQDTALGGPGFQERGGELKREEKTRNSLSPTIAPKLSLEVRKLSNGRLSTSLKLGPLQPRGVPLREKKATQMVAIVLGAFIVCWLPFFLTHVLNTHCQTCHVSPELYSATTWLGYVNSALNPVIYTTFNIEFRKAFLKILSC
property_label: pKi
Scale: pKi equals -log10([C]), with [C] in mol/L.

Query string: Entry CCCCN(CC)CC(C(C)=O)C1=C(O)OC2C=CC=CC2C1=O (configuration not stated) has what pKi?
Result string: 5.00

Query string: Entry CC(=O)NCC1(c2ccccc2)CCN(CCCC(=O)c2ccc(F)cc2)CC1 has what pKi?
Result string: 5.00

Query string: Entry O=C(CCCCN1CCN2c3ccccc3CCC2C1)c1ccccc1 (configuration not stated) has what pKi?
Result string: 6.53

Query string: Entry CCCCCN1CCN(C(CC(=O)c2ccccc2)C(=O)c2ccccc2)CC1 (configuration not stated) has what pKi?
Result string: 5.00

Query string: Entry O=C(CCCN1CCN2c3ccccc3CCC2C1)c1ccc(F)cc1 (configuration not stated) has what pKi?
Result string: 7.08

Query string: Entry CCOc1ccc(NC(=O)C2CCCN(CCc3ccccc3)C2)cc1 (configuration not stated) has what pKi?
Result string: 5.00

Query string: Entry CCCN(CCC)CN1C(=O)c2ccccc2C1=O has what pKi?
Result string: 5.00

Query string: Entry CN(C)C(=O)C1(c2ccc(Cl)cc2)CCN(CCCC(=O)c2ccc(F)cc2)CC1 has what pKi?
Result string: 7.36

Query string: Entry CCCCN1C/C(=C\c2ccc(Br)cc2)C(=O)/C(=C/c2ccc(Br)cc2)C1 has what pKi?
Result string: 6.00

Query string: Entry OC(CCCN1CCN2CCc3[nH]c4ccccc4c3C2C1)c1ccc(F)cc1 (configuration not stated) has what pKi?
Result string: 5.62

Query string: Entry O=c1[nH]c2ccccc2n1CCCN1CCN(C(c2ccccc2)c2ccccc2)CC1 [OXATOMIDE] has what pKi?
Result string: 7.20

Query string: Entry CCCCN1CSC(=S)N(Cc2ccccc2)C1 has what pKi?
Result string: 5.00

Query string: Entry Cc1ccc2c(c1)Sc1c(ccc3ccccc13)N2CCCN(C)C has what pKi?
Result string: 5.85

Query string: Entry Cc1ccc(C)c2c1Sc1c(ccc3ccccc13)N2CCCN(C)C has what pKi?
Result string: 6.35

Query string: Entry c1ccc2c3c([nH]c2c1)CCN1CCN(CCc2ccncc2)CC31 (configuration not stated) has what pKi?
Result string: 5.00

Query string: Entry O=C(CCCN1CCN2Cc3[nH]c4ccccc4c3CC2C1)c1ccc(F)cc1 (configuration not stated) has what pKi?
Result string: 7.96

Query string: Entry CCN(CC)CCCN(C)Cc1c(-c2ccccc2)oc(-c2ccccc2)c1Cl has what pKi?
Result string: 5.86

Query string: Entry CCCCN(CCCC)Cc1c(C)nc2cc(OC)ccc2c1O has what pKi?
Result string: 5.00

Query string: Entry CCn1c2ccccc2c2cc(NCCCN(C)C)ccc21 has what pKi?
Result string: 5.00

Query string: Entry CCCCCCCN1CCC(C(=O)CC)(c2cccc(O)c2)CC1 has what pKi?
Result string: 5.58

Query string: Entry CCC(=O)OC1(c2ccccc2)CCN(CCC(=O)c2ccccc2)CC1C (configuration not stated) has what pKi?
Result string: 5.00

Query string: Entry O=C(CCN1CCN2c3ccccc3CCC2C1)c1ccc(F)cc1 (configuration not stated) has what pKi?
Result string: 6.33

Query string: Entry CCCN(CCC)CCC(O)c1cc2c(c3ccccc13)CCCC2 (configuration not stated) has what pKi?
Result string: 5.90

Query string: Entry CCCCN1CN(CCCC)CN(C(=S)c2c(Cl)cccc2Cl)C1 has what pKi?
Result string: 5.00

Query string: Entry O=C(OC1(c2nccc3ccccc23)CCN(CCc2ccccc2)CC1)c1ccccc1 has what pKi?
Result string: 6.00

Query string: Entry N#CCCN(CCCN1CCOCC1)CN1C(=O)c2ccccc2C1=O has what pKi?
Result string: 5.00

Query string: Entry CCC(=O)OC1(c2ccccc2)CCN(CCCC(=O)c2ccccc2)CC1 has what pKi?
Result string: 6.37

Value source: ChEMBL document CHEMBL1145120
